- PROTOCOL TEXT: Solubility measurement in various solvents at 50 ± 1° C. (Procedure 2)
- Type: physicochemical
- CONDITION INFO: water, 50 °C, water, thermodynamic from solid, Water; read-out: Solubility at 50 ± 1° C.
TEST READOUT: solubility (µg/mL)
Answers are plain numbers, in µg/mL.

Given item C=CC(=O)NCc1cc2c(cn1)CN(c1c(F)c(OC)cc(OC)c1F)C(=O)C21CC1 [Compound 1 Form I] , the value recorded as its solubility is 10

###

- PROTOCOL TEXT: Solubility measurement in various solvents at 23 ± 1° C. (Procedure 1)
- Assay type: physicochemical
- CONDITION INFO: 1,4-dioxane, 23 °C, organic solvent or mixture, thermodynamic from solid, 1,4-Dioxane; read-out: Solubility at 23 ± 1° C.
TEST READOUT: solubility
Answer with the value and then the unit.

Given item C=CC(=O)NCc1cc2c(cn1)CN(c1c(F)c(OC)cc(OC)c1F)C(=O)C21CC1 [Form III] , the value recorded as its solubility is 3020 µg/mL
